# Assayed system: C-Raf FL (Homo sapiens (Human), UniProt P04049, Y340E/Y341E)
# Sequence (P04049 whole entry Y340E/Y341E): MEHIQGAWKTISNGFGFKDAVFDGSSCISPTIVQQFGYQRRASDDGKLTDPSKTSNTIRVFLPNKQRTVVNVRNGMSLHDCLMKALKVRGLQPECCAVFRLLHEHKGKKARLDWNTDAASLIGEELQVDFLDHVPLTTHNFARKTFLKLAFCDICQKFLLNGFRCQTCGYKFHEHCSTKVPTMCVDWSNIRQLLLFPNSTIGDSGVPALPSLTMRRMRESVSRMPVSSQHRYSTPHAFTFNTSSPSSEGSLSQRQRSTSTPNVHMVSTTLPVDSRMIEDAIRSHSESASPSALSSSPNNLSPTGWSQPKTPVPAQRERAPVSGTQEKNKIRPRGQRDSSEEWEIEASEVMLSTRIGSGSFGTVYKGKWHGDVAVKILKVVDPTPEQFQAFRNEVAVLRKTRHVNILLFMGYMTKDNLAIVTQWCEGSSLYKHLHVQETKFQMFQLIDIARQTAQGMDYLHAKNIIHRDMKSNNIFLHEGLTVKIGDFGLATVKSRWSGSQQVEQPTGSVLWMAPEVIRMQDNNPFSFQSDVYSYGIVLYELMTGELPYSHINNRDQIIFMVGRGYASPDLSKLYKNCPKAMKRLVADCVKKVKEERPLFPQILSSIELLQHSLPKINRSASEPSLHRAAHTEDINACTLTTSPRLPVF
# Sequence (P63104 whole entry partner): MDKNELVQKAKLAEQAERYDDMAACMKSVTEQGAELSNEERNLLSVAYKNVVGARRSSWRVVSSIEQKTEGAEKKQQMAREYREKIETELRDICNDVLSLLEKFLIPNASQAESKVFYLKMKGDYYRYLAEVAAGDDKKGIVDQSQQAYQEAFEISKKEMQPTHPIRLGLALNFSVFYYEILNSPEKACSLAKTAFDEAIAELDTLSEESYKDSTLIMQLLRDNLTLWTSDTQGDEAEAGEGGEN
# Experiment summary: In vitro Raf activity determination (Alpha Screen, phospho-MEK), C-Raf FL (full length, Y340E/Y341E)
# Assay conditions: ATP 1 μM; 60 min pre-incubation; 1 hour reaction; column head does not say FL or TR
pIC50: −log10 of the molar value.
Threshold check on pIC50: at or above 9 gives condition met, strictly below gives condition not met.

Textbook exercise: given the entry Cc1ncc(NC(=O)c2ccc(CN)c(C(F)(F)F)c2)cc1-c1cc(C2COC2)c2nccn2n1 , state whether its pIC50 is greater than or equal to 9.
condition not met

Textbook exercise: given the entry COc1ncc(-c2cc(NC(=O)c3cc(C(C)(F)F)ccn3)cnc2C)cc1C1(F)COC1 , state whether its pIC50 is greater than or equal to 9.
condition met

Textbook exercise: given the entry COC1(c2cc(-c3cc(NC(=O)c4cc(C(F)(F)F)ccn4)ccc3C)cc(NCCO)n2)COC1 , state whether its pIC50 is greater than or equal to 9.
condition met

We next turn to a different molecule, shown below.
Textbook exercise: given the entry Cc1ccc(NC(=O)c2cnc(C(F)(F)F)cn2)cc1-c1cc(OC[C@H](O)CO)nc(C2CCOCC2)c1 , state whether its pIC50 is greater than or equal to 9.
condition met
